- Tested on: phospho-MEK in A549 cells
- experiment_summary: Cell-based pMEK (pMEK:tMEK, CRAF bypass) in A549 cells
- setup_conditions: 2 h, pMEK to total MEK normalized to DMSO control
Threshold check on A549-CRAF BP 100 nM, 2 h: strictly below 50 is 1 (yes); on or above 50 is 0 (no).

# smiles_input, measurement_target, group
measured = [
    ("CNS(=O)(=O)Nc1cccc(Cc2c(CN(C)CC(C)C)c3ccc(OC(=O)N(C)C)cc3oc2=O)c1F", "phospho-MEK in A549 cells", "0 (no)"),
    ("CCS(=O)(=O)Nc1cccc(Cc2c(CN3CCNCC3)c3cc(Cl)c(OC(=O)N(C)C)cc3oc2=O)c1F", "phospho-MEK in A549 cells", "1 (yes)"),
    ("CNS(=O)(=O)Nc1nccc(Cc2c(CN(C)C)c3cc(F)c(OC(=O)N(C)C)cc3oc2=O)c1F", "phospho-MEK in A549 cells", "0 (no)"),
    ("CCS(=O)(=O)Nc1cccc(Cc2c(C)c3ccc(OC(=O)N(C)C)cc3oc2=O)c1F", "phospho-MEK in A549 cells", "1 (yes)"),
    ("CNS(=O)(=O)Nc1cccc(Cc2c(CN(C)C)c3ccc(OC(=O)N4CCC4)cc3oc2=O)c1F", "phospho-MEK in A549 cells", "1 (yes)"),
]

---

This listing pairs compounds with measured T1/2.
- experiment_summary: Plasma stability, cynomolgus monkey plasma (K2-EDTA)
- Assay type: in vitro ADME
- setup_conditions: 2 μM, anti-coagulant K2-EDTA

# smiles_input, T1/2
records = [
    ("CCCS(=O)(=O)Nc1cccc(Cc2c(CN3CCNCC3)c3cc(Cl)c(OC(=O)N(C)C)cc3oc2=O)c1F", ">2 h"),
    ("CNS(=O)(=O)Nc1cccc(Cc2c(CN(C)C)c3cc(F)c(OC(=O)N(C)C)cc3oc2=O)c1F", ">2 h"),
    ("CNS(=O)(=O)Nc1cccc(Cc2c(CN(C)C)c3ccc(OC(=O)N(C)C)cc3oc2=O)c1F", ">2 h"),
    ("CNS(=O)(=O)Nc1nccc(Cc2c(CN(C)C)c3ccc(OC(=O)N(C)C)cc3oc2=O)c1F", "21.32 h"),
    ("CNS(=O)(=O)Nc1cccc(Cc2c(CN3CCNCC3)c3cc(F)c(OC(=O)N(C)C)cc3oc2=O)c1F", "15.8 h"),
    ("CCS(=O)(=O)Nc1cccc(Cc2c(CN(C)C)c3ccc(OC(=O)N(C)C)cc3oc2=O)c1F", ">2 h"),
]

---

- experiment_summary: Mouse pharmacokinetics (oral cassette dosing), plasma
- Assay type: in vivo
- setup_conditions: BALB/c immunocompetent mice, 5 mg/kg p.o.
- Description: Female mice (BALC/c) received a single dose (3 mice/treatment) of vehicle (10% 1N HCl:90% [20% […]) and at 0.5, 1, 2, 4, 8, 12 and 24-hour post dose humanely euthanized. Blood was obtained through cardiac puncture into K+EDTA tubes, mixed by inversion and centrifuged to obtain the plasma. Blood will be kept on ice or at approximately 4° C. prior. Centrifugation will take place within 30 minutes of blood collection affording plasma samples. […] All samples will be analysed by means of LC-MS/MS. […]

# smiles_input, AUC(0-t), ng·h/mL
rows = [
    ("CCN(C)Cc1c(Cc2cccc(NS(=O)(=O)CC)c2F)c(=O)oc2cc(OC(=O)N(C)C)c(Cl)cc12", 11.8),
    ("CNS(=O)(=O)Nc1cccc(Cc2c(CN(C)C)c3cc(Cl)c(OC(=O)N(C)C)cc3oc2=O)c1F", 850.1),
    ("CCS(=O)(=O)Nc1cccc(Cc2c(CN(C)C)c3ccc(OC(=O)N(C)C)cc3oc2=O)c1F", 669.3),
    ("CNS(=O)(=O)Nc1cccc(Cc2c(CN(C)C)c3ccc(OC(=O)N(C)C)cc3oc2=O)c1F", 441),
    ("CNS(=O)(=O)Nc1cccc(Cc2c(CN(C)C)c3cc(F)c(OC(=O)N(C)C)cc3oc2=O)c1F", 1336),
]
